- Test system: normal canine Purkinje fibers
- test-description: Action potential duration of normal canine Purkinje fibers superfused in vitro (standard electrophysiological techniques)
- Format: cell-based
- settings: Canis lupus familiaris, 10^-7 M, Ringer's solution at 35° C., driven at 1 Hz, read-out: Percent Increase in Action Potential Duration (at 95% of full repolarization)
value-type: activation at 0.1 µM (%)
Use % as the unit, but write only the number.

structure-smiles-string: CCCCCCCN(CCCC)CCCCc1ccc(NS(C)(=O)=O)cc1
unit-spec: %
endpoint-result: 26
--
structure-smiles-string: CCCCCCCN(CC)CCCCc1ccc(NS(=O)(=O)CC)cc1
unit-spec: %
endpoint-result: 19
--
structure-smiles-string: CCCCCCCN(CC)CCCCc1ccc(NS(C)(=O)=O)cc1
unit-spec: %
endpoint-result: 31

We next turn to a different compound, shown below.
Q: Need activation at 0.1 µM of `CCCCCCCN(CC)CCCCc1cccc(NS(C)(=O)=O)c1` , thanks.
Ans: 20
